assay: microbe, parasite or virus in culture; details: Mycobacterium tuberculosis, 72 h, read-out: pIC50 (converted)
measured_quantity: IC50

Data point: O=C(c1cccc2cn[nH]c12)N1CCCC1CO (stereo not given) ; IC50 = > 501 µM

Looking up Nc1nnnn1NCc1cccc(Cl)c1Cl , I see its IC50 listed as > 50.1 µM

Noted for CN(Cc1nc2ccccc2o1)C1CCCN(c2cccnn2)C1 (stereo not given) : its IC50 reads > 50.1 µM

// sample CN1CCOC[C@H]1c1nc(-c2cccnc2)c[nH]1 , its IC50 was > 50.1 µM

Form field IC50, entry CN(C)c1ccc(C(=O)N2CCCC2c2ccc(Cl)cc2)nn1 (stereo not given) : > 50.1 µM

---

experiment: microbe, parasite or virus in culture; details: Mycobacterium tuberculosis, 72 h, read-out: pIC50 (converted)
Listed below: IC50 values for each entry.

get_value(item= COc1ccc(C(=O)NC2COc3ccccc3C2)cc1OCC(=O)O (configuration not stated) , readout=IC50) returns > 50.1 µM

Query CC(C)(C)CN1CCN2C(=O)N(C3CCCCC3)C[C@H]2C1 yields IC50 of > 50.1 µM

Data point: N#Cc1cccc(OCCn2cnc(C#N)n2)c1 ; IC50 = > 501 µM

Data point: Nc1cc(-c2c[nH]nc2C2CCCCN2C(=O)C2CCCC2)ccn1 (configuration not stated) ; IC50 = > 50.1 µM

// field: IC50; key: CC1CC(=O)NCCN1 (configuration not stated) ; value = > 501 µM

---

Readings of IC50 for the listed compounds
assay: microbe, parasite or virus in culture; conditions: Mycobacterium tuberculosis, 72 h, read-out: pIC50 (converted)

Worked cases, IC50 given:
compound	IC50
CC1(NC(=O)CC2CCc3ccccc32)CCOCC1 (stereo not given)	> 50.1 µM
Cc1cc(N2Cc3cnn(CCO)c3C2)nc(-c2ccccc2O)n1	> 50.1 µM
CCNCc1nc(-c2ccccc2)no1	> 501 µM

// field: IC50; key: COCCNS(=O)(=O)c1cccc2c1CN(C(=O)c1ccoc1)CC2 ; value = > 50.1 µM

The reported IC50 of the compound COCc1ccc(CNc2cnn(C(C)(C)C)c(=O)c2Cl)cc1 was > 50.1 µM

Entry Cc1ccc(S(=O)(=O)N2CCc3nc(C4CCNCC4)ncc3C2)cc1 ; IC50 = > 50.1 µM

---

assay: microbe, parasite or virus in culture; conditions: Mycobacterium tuberculosis, 96 h, read-out: pIC50 (converted)
measured_quantity: IC50

compound	IC50
Clc1cc(CN2CCCN3CCCC3C2)c2ncccc2c1 (stereo not drawn)	12.2 µM
NCCNS(=O)(=O)c1ccc(-c2ccccc2)cc1	171 µM

Entry Cc1ccc(-c2nc(CNC(C)Cn3cccn3)cs2)o1 (stereo not drawn) — recorded IC50 = > 50.1 µM

---

system: Plasmodium falciparum; assay: Calibr Malaria Delayed Death Assay SOP; assay type: functional, organism-based; settings: Plasmodium falciparum
Under this convention, 1 (yes) denotes IC50 strictly below 900 nM and 0 (no) denotes IC50 at or above 900 nM.

Check out these entries, answers already filled in.
molecule	target_desc	label
Cc1ccc(CN(Cc2cccnc2)C2CC(C)(C)NC(C)(C)C2)s1.O=C(O)CC(O)(CC(=O)O)C(=O)O	Plasmodium falciparum	1 (yes)
Cc1cc(S(=O)(=O)NCC2CNCCOC2)c(C)cc1Cl (stereo not drawn)	Plasmodium falciparum	0 (no)
Cc1cc(-n2cccn2)ccc1CN1CCOCC(CN(C)C)C1 (stereo not drawn)	Plasmodium falciparum	1 (yes)

*Q* Item COc1cccc(CNCc2ccc(F)cc2Cl)c1O : IC50 beneath 900 nM, strictly?
*A* 1 (yes)

*Q* Given CCn1cncc1CN1CCN(CC2(c3ccc(C)cc3)CC2)CC1.Cl , is recorded IC50 strictly lower than 900 nM?
*A* 0 (no)
